Biological target: T1, rat VPAC2 receptor (rat, UniProt P35000 23-437)
T1 sequence (looked up): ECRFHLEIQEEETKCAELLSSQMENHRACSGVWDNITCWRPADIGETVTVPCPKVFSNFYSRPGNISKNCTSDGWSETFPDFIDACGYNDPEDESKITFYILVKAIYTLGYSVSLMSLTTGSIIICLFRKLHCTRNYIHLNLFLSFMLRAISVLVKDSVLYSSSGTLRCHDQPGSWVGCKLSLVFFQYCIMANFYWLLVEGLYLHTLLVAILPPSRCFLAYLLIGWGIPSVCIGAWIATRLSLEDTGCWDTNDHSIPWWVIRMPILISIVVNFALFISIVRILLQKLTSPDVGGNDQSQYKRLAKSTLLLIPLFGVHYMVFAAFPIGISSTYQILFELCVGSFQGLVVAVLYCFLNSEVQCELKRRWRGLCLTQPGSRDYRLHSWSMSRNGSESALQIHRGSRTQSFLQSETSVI
Assay: cell-based or functional assay
Square brackets hold non-standard residues; d marks the D form. Ends that are not written are not given here. * marks the point of attachment. Orn = NCCC[C@H](N)C(=O)O; Hexanoyl = CCCCCC(=O)*; Aib = CC(C)(N)C(=O)O
# maps each entry to its Rat VPAC2 Receptor: DiscoveRx (EC50; nM), cAMP generation
ENDPOINT_NAME: Rat VPAC2 Receptor: DiscoveRx (EC50; nM), cAMP generation

[[record]]
binder = "Hexanoyl-HSDAVFTDNYTRLLAKLALQKYLQSI[Orn]N[Orn]GGPSSGAPPPS [VPAC2 receptor peptide agonist P370]"
result_value = 0.05

[[record]]
binder = "HSDAVFTDQYTXLRXQLAAXXYLQSIXXGGPSSGAPPPS (N-terminal hexanoyl (C6); Tyr(OMe) at 10; Orn at 12, 21, 27 and 28; Aib at 15 and 20) [VPAC2 receptor peptide agonist P394]"
result_value = 0.03

[[record]]
binder = "Hexanoyl-HSDAVFTDNYTLLR[Aib]QVAA[Aib]KYLQSI[Orn]N[Orn]GGPSSGAPPPS [VPAC2 receptor peptide agonist P367]"
result_value = 6.14

[[record]]
binder = "HSDAVFTEQYTXLRXQLAAXXYLQSIXXGGPSSGAPPPS (N-terminal hexanoyl (C6); Tyr(OMe) at 10; Orn at 12, 21, 27 and 28; Aib at 15 and 20; C-terminal amide (-NH2)) [VPAC2 receptor peptide agonist P487]"
result_value = 0.03

[[record]]
binder = "HSDAVFTDNYTXLRXQVASXKYLQSIXNXGGPSSGAPPPS (N-terminal hexanoyl (C6); Orn at 12, 27 and 29; Aib at 15 and 20) [VPAC2 receptor peptide agonist P387]"
result_value = 0.4

[[record]]
binder = "HSEAVFTEQYTXLRXQLAAXXYLQSIXXGGPSSGAPPPS (N-terminal hexanoyl (C6); Tyr(OMe) at 10; Orn at 12, 21, 27 and 28; Aib at 15 and 20) [VPAC2 receptor peptide agonist P393]"
result_value = 0.17

